The reported numbers originate from patent US20240208992A1.

Biological target: human F508del-CFTR (Homo sapiens, UniProt P13569, DEL508-508)
Sequence (P13569 with tags, fused parts or gaps DEL508-508): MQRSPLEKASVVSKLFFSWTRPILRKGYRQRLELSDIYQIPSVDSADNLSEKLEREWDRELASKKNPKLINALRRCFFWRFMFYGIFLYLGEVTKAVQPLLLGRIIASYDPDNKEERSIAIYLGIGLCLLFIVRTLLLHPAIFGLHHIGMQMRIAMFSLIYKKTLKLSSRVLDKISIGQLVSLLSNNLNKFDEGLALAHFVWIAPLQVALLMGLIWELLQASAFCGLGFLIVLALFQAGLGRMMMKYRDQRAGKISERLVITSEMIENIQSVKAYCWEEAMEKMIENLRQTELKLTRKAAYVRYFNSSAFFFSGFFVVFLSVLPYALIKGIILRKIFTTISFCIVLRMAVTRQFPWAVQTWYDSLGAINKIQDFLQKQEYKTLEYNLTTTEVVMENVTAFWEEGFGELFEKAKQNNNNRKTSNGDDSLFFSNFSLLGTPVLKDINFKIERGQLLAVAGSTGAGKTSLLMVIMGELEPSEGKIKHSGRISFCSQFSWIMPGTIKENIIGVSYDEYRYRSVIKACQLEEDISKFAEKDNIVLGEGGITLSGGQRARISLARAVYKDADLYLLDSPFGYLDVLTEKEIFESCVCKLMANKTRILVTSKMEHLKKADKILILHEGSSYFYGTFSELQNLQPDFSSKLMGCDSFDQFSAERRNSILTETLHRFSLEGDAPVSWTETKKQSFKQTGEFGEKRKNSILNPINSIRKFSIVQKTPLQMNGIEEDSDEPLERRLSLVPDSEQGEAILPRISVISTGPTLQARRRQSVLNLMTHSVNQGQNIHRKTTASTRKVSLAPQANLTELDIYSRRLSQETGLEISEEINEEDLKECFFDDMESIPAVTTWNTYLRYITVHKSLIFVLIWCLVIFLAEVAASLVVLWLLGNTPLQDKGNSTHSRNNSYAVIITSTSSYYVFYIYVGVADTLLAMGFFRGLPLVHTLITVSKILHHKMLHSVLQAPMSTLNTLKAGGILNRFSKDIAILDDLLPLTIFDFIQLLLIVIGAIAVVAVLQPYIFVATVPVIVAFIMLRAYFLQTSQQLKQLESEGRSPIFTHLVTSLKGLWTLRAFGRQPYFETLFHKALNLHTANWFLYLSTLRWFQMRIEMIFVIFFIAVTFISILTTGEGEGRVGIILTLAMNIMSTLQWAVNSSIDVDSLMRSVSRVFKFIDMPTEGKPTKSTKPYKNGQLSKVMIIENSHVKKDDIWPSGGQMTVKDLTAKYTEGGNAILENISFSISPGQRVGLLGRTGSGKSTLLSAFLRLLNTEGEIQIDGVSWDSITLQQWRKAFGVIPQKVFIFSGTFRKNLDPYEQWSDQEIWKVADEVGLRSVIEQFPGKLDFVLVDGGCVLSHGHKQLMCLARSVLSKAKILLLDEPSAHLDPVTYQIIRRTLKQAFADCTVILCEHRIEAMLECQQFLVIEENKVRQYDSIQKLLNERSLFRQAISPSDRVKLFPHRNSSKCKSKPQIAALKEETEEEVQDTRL
Assay: F508del-CFTR cell surface expression (corrector activity), DiscoveRx ß-galactosidase complementation chemiluminescence assay in recombinant U2OS cell line;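 further: U2OS cells co-expressing ProLink-tagged F508del-CFTR and a membrane-anchored enzyme acceptor, where more surface CFTR restores β-galactosidase activity measured by chemiluminescence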
Conditions: U2OS, in relation to Emax of corrector lumacaftor (=100%); arithmetic mean values
parameter: Emax

Below are worked cases with known answers.
INSERT INTO results (compound, assay_target, parameter, result) VALUES
  ('CO[C@H]1C[C@]2(C1)C(=O)N[C@H](Cc1ccccc1)COc1ccc3ccccc3c1C(=O)N[C@H](C(=O)NCCc1ccc(-n3nccn3)cc1)CC(=O)N(C)[C@@H](CC(C)C)C(=O)N2C [Example 492]', 'human F508del-CFTR (Homo sapiens, UniProt P13569, DEL508-508)', 'Emax', '168%'),
  ('COc1cc2c(cn1)OC[C@@H](Cc1ccccc1)NC(=O)[C@@H]1CCCCN1C(=O)[C@H](CC(C)C)N(C)C(=O)C[C@@H](C(=O)NCCc1cc(C3CC3)no1)NC2=O (mixture of isomers) [Example 652]', 'human F508del-CFTR (Homo sapiens, UniProt P13569, DEL508-508)', 'Emax', '155%'),
  ('COc1cc(CCNC(=O)[C@@H]2CC(=O)N(C)[C@@H](CC(C)C)C(=O)N3CCCC[C@@H]3C(=O)N[C@H](Cc3ccccc3)COc3cc(C)nc(OC)c3C(=O)N2)on1 [Example 533]', 'human F508del-CFTR (Homo sapiens, UniProt P13569, DEL508-508)', 'Emax', '352%'),
  ('COc1cc(CCNC(=O)[C@@H]2CC(=O)N(C)[C@@H](CC(C)C)C(=O)N3CCC4(CC4)C[C@H]3C(=O)N[C@H](Cc3ccccc3)COc3cc(C)nc(OC)c3C(=O)N2)on1 [Example 684]', 'human F508del-CFTR (Homo sapiens, UniProt P13569, DEL508-508)', 'Emax', '235%');

Turning now to a further record.
Query :: Which value of Emax has been reported for COc1cccc(CCNC(=O)[C@@H]2CC(=O)N(C)[C@@H](CC(C)C)C(=O)N(C)[C@H](C)C(=O)N[C@H](Cc3ccccc3)COc3ccnc(OC)c3C(=O)N2)c1 [Example 768] in the records?
Result :: 292%
